Tested on: Danio rerio larvae (5 dpf)
EXPERIMENTAL DETAILS: 1-h baseline activity (% time moving, periods 1-6) minus DMSO control (percentage points); higher = more locomotor activity than DMSO larvae
TEST SETTINGS: 10 µM; exposure time: 3 h pre-incubation + 3 h imaging
Structures can show the parent of a compound that is named as a salt.
Listing of entries alongside the reported 1-h baseline activity.
Please state the value as a number alone, without comment.

// solved cases for 1-h baseline activity follow
1. CN/C(=N\CCSCc1nc[nH]c1C)NC#N [Cimetidine]; 0.11
2. Cc1ccsc1C(=CCCN1CCC[C@@H](C(=O)O)C1)c1sccc1C [Tiagabine hydrochloride]; 7.89
3. CC1=Nc2ccc(Cl)cc2S(=O)(=O)N1 [Diazoxide]; 7.2
4. CCCCCOC(=O)Nc1nc(=O)n([C@@H]2O[C@H](C)[C@@H](O)[C@H]2O)cc1F [Capecitabine]; 6.82
5. O=C(O[C@@H]1C[C@@H]2C[C@H]3C[C@H](C1)N2CC3=O)c1c[nH]c2ccccc12 [Dolasetron mesylate]; -3.58

What 1-h baseline activity value was documented for this compound, CN(C)CCC[C@@]1(c2ccc(F)cc2)OCc2cc(C#N)ccc21 [Escitalopram oxalate] ?
-24.4

What 1-h baseline activity value was documented for this compound, Nc1ncn([C@H]2C[C@H](O)[C@@H](CO)O2)c(=O)n1 [Decitabine] ?
1.07

What 1-h baseline activity value was documented for this compound, C=C1[C@H](CO)[C@@H](O)C[C@@H]1n1cnc2c(=O)[nH]c(N)nc21 [Entecavir] ?
-2.24
